Here the recorded B-score binding assay is given for each entry.
Target: human NTCP (Homo sapiens, UniProt Q14973)
Sequence (Q14973 whole entry): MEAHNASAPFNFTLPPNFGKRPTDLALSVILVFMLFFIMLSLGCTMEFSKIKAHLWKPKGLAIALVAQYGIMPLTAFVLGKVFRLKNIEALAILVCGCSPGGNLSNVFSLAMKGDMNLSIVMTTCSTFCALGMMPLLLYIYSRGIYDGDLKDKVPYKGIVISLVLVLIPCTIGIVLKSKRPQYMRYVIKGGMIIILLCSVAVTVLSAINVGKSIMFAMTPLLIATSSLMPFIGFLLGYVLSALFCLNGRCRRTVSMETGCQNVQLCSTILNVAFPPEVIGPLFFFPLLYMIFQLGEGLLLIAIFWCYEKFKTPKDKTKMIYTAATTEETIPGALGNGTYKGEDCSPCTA
Assay: Screening fluorescent competitive Myrcludex B-FITC binding assay (96-well, 10 µM drug)
Settings: screen, 10 µM drug, Myrcludex B-FITC binding
Structures can show the parent of a compound that is named as a salt.
// return a plain number; no unit text

CC(C(=O)O)c1ccc2c(c1)[nH]c1ccc(Cl)cc12 (stereo not drawn) : 0.048

Tell me B-score binding assay reported for CC(Oc1ccccc1)C(=O)N[C@@H]1C(=O)N2[C@@H]1SC(C)(C)[C@@H]2C(=O)[O-].[K+] (stereo partly drawn) [Phenethicillin potassium salt] -0.048

Determine from records and report B-score binding assay for Clc1ccc2nsnc2c1NC1=NCCN1 [Tizanidine HCl] -1.169

----------
Biological target: human NTCP (Homo sapiens, UniProt Q14973)
Assay: Screening taurocholate uptake assay (96-well, [14C]taurocholate, 10 µM drug)
Details: combined ranking from functional and binding screening assays
Counter-ions that a name gives are not always drawn.
Metric: Ranking score
Enter the number alone.

Cc1cnc(C(=O)NCCc2ccc(S(=O)(=O)NC(=O)NC3CCCCC3)cc2)cn1 [Glipizide] : 412.592
Cn1c([N+](=O)[O-])cnc1COC(N)=O [Ronidazole] : 432.42

Determine reported Ranking score for CC(Cc1ccc(O)cc1)NCC(O)c1cc(O)cc(O)c1 (stereo not drawn) [Fenoterol hydrobromide] ; test system: human NTCP (Homo sapiens, UniProt Q14973). 457.393

Enter recorded Ranking score with human NTCP (Homo sapiens, UniProt Q14973) for NCCCC[C@H](N[C@@H](CCc1ccccc1)C(=O)O)C(=O)N1CCC[C@H]1C(=O)O [Lisinopril] here. 445.618

Write down the reported Ranking score (system: human NTCP (Homo sapiens, UniProt Q14973)) of CC(=O)[C@H]1CC[C@H]2[C@@H]3C[C@H](C)C4=CC(=O)CC[C@]4(C)[C@H]3[C@@H](O)C[C@]12C [Medrysone] 406.005

Give Ranking score; test system human NTCP (Homo sapiens, UniProt Q14973); molecule C1CCC(C(CC2CCCCN2)C2CCCCC2)CC1 (stereo not drawn) [Perhexiline maleate] 400.32

Enter recorded Ranking score with human NTCP (Homo sapiens, UniProt Q14973) for OCCN(CCO)c1nc(N2CCCCC2)c2nc(N(CCO)CCO)nc(N3CCCCC3)c2n1 [Dipyridamole] here. 317.643

Send back human NTCP (Homo sapiens, UniProt Q14973) Ranking score of O=C1Cc2cc(CCN3CCN(c4nsc5ccccc45)CC3)c(Cl)cc2N1 [Ziprasidone Hydrochloride] only. 382.094

Provide human NTCP (Homo sapiens, UniProt Q14973) Ranking score reading for NCC1(CC(=O)O)CCCCC1 [Gabapentin] . 428.131

----------
Target: human NTCP (Homo sapiens, UniProt Q14973)
Test: Screening taurocholate uptake assay (96-well, [14C]taurocholate, 10 µM drug)
Settings: combined ranking of functional and binding screening assays
Structures can show the parent of a compound that is named as a salt.
Please enter T where Ranking score is greater than or equal to 500, and F where it is lower.

OC(CCN1CCCCC1)(c1ccccc1)C1CC2C=CC1C2 (stereo not shown) [Biperiden hydrochloride] : T
COC(=O)Nc1nc2ccc(Sc3ccccc3)cc2[nH]1 [Fenbendazole] : T
CCN(CC)C(=O)c1ccc(O)c(OC)c1 [Ethamivan] : T
C=C1/C(=C\C=C2/CCC[C@]3(C)[C@@H]([C@H](C)CCCC(C)C)CC[C@@H]23)C[C@@H](O)C[C@@H]1O [Alfacalcidol] : T
NS(=O)(=O)c1cc(C2(O)NC(=O)c3ccccc32)ccc1Cl (stereo not shown) [Chlorthalidone] : T

Given the entry CC(C)C[C@H](NC(=O)[C@@H](O)[C@H](N)Cc1ccccc1)C(=O)O [Ubenimex] , answer whether its Ranking score meets or surpasses 500. T

Record NC(=O)c1ccc[n+]([C@@H]2O[C@H](COP(=O)([O-])OP(=O)(O)OC[C@H]3O[C@@H](n4cnc5c(N)ncnc54)[C@H](O)[C@@H]3O)[C@@H](O)[C@H]2O)c1 [Nadide] ; criterion: Ranking score no lower than 500. Met? F

Decide: is the reported value of Ranking score for CCCCOc1cc(C(=O)NCCN(CC)CC)c2ccccc2n1 [Dibucaine] equal to or greater than 500? T

Given the entry Cc1cccc(Nc2ccncc2S(=O)(=O)NC(=O)NC(C)C)c1 [Torsemide] , answer whether its Ranking score meets or surpasses 500. F

State whether the measured Ranking score reaches 500, counting equality as reaching it, for CC(=O)O[C@H]1C[C@H](O[C@H]2[C@@H](O)C[C@H](O[C@H]3[C@@H](O)C[C@H](O[C@H]4CC[C@@]5(C)[C@H](CC[C@@H]6[C@@H]5C[C@@H](O)[C@]5(C)[C@@H](C7=CC(=O)OC7)CC[C@]65O)C4)O[C@@H]3C)O[C@@H]2C)O[C@H](C)[C@H]1O[C@@H]1O[C@H](CO)[C@@H](O)[C@H](O)[C@H]1O [Lanatoside C] T

----------
In this section, each of the molecules is paired with its reported Ranking score.
Target: human NTCP (Homo sapiens, UniProt Q14973)
Test: Screening taurocholate uptake assay (96-well, [14C]taurocholate, 10 µM drug)
Conditions: combined ranking from functional and binding assay B-scores
Where a name gives a salt, the structure may show the parent alone.
Lab note: write the figure by itself, no unit.

COc1ccc2[nH]cc(CCNC(C)=O)c2c1 [Melatonin] : 864.497
NC[C@H]1O[C@H](O[C@H]2[C@H](O[C@@H]3O[C@H](CO)[C@@H](O)[C@H]3O)[C@@H](O)[C@H](N)C[C@@H]2N)[C@H](N)[C@@H](O)[C@@H]1O.O=S(=O)(O)O [Ribostamycin sulfate salt] : 1035.72
CCN1CCCC1CNC(=O)c1cc(S(=O)(=O)CC)c(N)cc1OC (stereo not shown) [Amisulpride] : 873.097
Cn1cc[nH]c1=S [Methimazole] : 1068.39

Provide only the value of recorded Ranking score for CC(C)(C)NC[C@H](O)c1ccc(O)c(CO)c1 [Levalbuterol hydrochloride] 962.353

Specify Ranking score for CC(C)(C)NCC(O)COc1cccc2c1CC(O)C(O)C2 (stereo not shown) [Nadolol] and stop. 986.853

Give Ranking score for the following molecule: NC[C@@H]1O[C@H](O[C@H]2[C@@H](O)[C@H](O[C@@H]3[C@@H](O)[C@H](N)C[C@H](N)[C@H]3O[C@H]3O[C@H](CN)[C@@H](O)[C@H](O)[C@H]3N)O[C@@H]2CO)[C@H](N)[C@@H](O)[C@@H]1O.O=S(=O)(O)O [Neomycin sulfate] 912.995

----------
Entries and their Ranking score values follow.
Target: human NTCP (Homo sapiens)
Test: Screening taurocholate uptake assay (96-well, [14C]taurocholate, 10 µM drug)
Settings: ranking over the functional and the binding screening assay
Counter-ions that a name gives are not always drawn.
When you answer, write just the number.

CCC(=O)OCC(=O)[C@@]1(OC(=O)CC)[C@H](C)C[C@H]2[C@H]3[C@H]([C@@H](O)C[C@@]21C)[C@@]1(C)C=CC(=O)C=C1C[C@H]3Cl [Alclometasone dipropionate] : 175.417
NC(=O)c1cnccn1 [Pyrazinamide] : 244.119
CN1CCCN=C1/C=C/c1cccc(O)c1.O=C(O)c1cc2ccccc2c(Cc2c(O)c(C(=O)O)cc3ccccc23)c1O [Oxantel pamoate] : 130.111
CC1(C)S[C@@H]2[C@H](NC(=O)[C@H](C(=O)O)c3ccsc3)C(=O)N2[C@H]1C(=O)O [Ticarcillin sodium] : 110.132

Name the recorded Ranking score of Cc1c(C)c2c(c(C)c1O)CCC(C)(C(=O)O)O2 (stereo not drawn) , assay system human NTCP (Homo sapiens). 114.263

Report its Ranking score with human NTCP (Homo sapiens) as the test system: CC(C)NCC(O)COc1ccc(COCCOC(C)C)cc1 (stereo not drawn) [Bisoprolol fumarate] 263.481

----------
Molecular target: human NTCP (Homo sapiens)
Assay: Screening taurocholate uptake assay (96-well, [14C]taurocholate, 10 µM drug)
Conditions: combined ranking from functional and binding assay B-scores
Could you label it true (1) if measured Ranking score is 1000 or higher, and false (0) otherwise?

// below: answered compounds
CCC(C)n1ncn(-c2ccc(N3CCN(c4ccc(OCC5COC(Cn6cncn6)(c6ccc(Cl)cc6Cl)O5)cc4)CC3)cc2)c1=O (stereo not drawn) [Itraconazole] : false (0)
Cn1nnc2c(C(N)=O)ncn2c1=O [Temozolomide] : false (0)
Cc1cn([C@H]2C=C[C@@H](CO)O2)c(=O)[nH]c1=O [Stavudine] : false (0)
Nc1ccn([C@@H]2O[C@H](CO)[C@@H](O)[C@@H]2O)c(=O)n1 [Cytarabine] : false (0)
CCCCOC(=O)c1ccc(N)cc1 [Butamben] : true (1)

// next entry
// inclusive: Ranking score at least 1000? input: CCC1(C)CC(=O)NC1=O (stereo not drawn) [Ethosuximide] true (1)
